tgt: rat A2A AR (Rattus norvegicus, UniProt P30543)
Construct: A2A ARs of rat brain striatal membrane preparations; from tissue; host or cells: rat brain striatum membranes
Sequence (P30543 whole entry): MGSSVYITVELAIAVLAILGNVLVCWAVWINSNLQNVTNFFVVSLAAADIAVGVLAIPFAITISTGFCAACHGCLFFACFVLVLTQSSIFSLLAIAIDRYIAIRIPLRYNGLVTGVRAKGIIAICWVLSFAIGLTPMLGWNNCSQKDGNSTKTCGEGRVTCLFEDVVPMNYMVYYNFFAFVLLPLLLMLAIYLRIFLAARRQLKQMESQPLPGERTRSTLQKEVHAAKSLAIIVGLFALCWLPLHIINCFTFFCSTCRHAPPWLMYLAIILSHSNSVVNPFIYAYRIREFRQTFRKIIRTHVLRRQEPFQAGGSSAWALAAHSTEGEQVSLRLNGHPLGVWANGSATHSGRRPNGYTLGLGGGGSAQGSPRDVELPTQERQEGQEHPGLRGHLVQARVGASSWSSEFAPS
assay.name: Radioligand binding assay at rat A2A AR (rat brain striatum) vs. [^3H]MSX-2
test.conditions: rat (r); rat brain striatum; n = 3; read-out: Ki ± SEM, A2A vs. [^3H]MSX-2
pKi: −log10 of the molar value.
Mark TRUE for reported pKi of 6 or greater; mark FALSE for anything smaller.

See these solved cases before continuing.
1) CCn1c(=O)c2c(nc3n2CCN(Cc2cccc(F)c2)C3)n(CC)c1=O [Compound 15b] = FALSE
2) CCn1c(=O)c2c(nc3n2CCN(Cc2ccc(Br)cc2)C3)n(C)c1=O [Compound 14c] = FALSE
3) CCn1c(=O)c2c(nc3n2CCN(Cc2cccc(F)c2)C3)n(C)c1=O [Compound 14g] = FALSE

Now for another entry.
Check the entry C#CCn1c(=O)c2c(nc3n2CCN(Cc2cc(C(F)(F)F)ccc2Cl)C3)n(C)c1=O [Compound 19b] : does pKi equal or exceed 6?
TRUE

###

tgt: human A2A AR (Homo sapiens, UniProt P29274)
Construct: expressed in transfected cells; host or cells: CHO cells
Sequence (P29274 whole entry): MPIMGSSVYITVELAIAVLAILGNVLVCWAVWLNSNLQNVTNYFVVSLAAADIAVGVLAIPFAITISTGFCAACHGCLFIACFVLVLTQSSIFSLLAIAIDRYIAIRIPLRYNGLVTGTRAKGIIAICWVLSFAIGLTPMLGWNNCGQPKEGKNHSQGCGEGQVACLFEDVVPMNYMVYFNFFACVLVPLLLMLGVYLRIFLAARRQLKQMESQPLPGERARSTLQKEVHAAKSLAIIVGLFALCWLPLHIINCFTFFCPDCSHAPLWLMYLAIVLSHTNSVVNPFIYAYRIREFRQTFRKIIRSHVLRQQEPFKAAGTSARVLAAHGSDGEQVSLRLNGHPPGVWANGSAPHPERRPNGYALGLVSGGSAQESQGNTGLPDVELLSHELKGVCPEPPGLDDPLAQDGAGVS
assay.name: Radioligand binding assay at human A2A AR vs. [^3H]MSX-2
test.conditions: CHO cell membranes, n = 3, read-out: Ki ± SEM, A2A vs. [^3H]MSX-2
# Y = Ki below 600 nM (exclusive); N = Ki at/above 600 nM

See these solved cases before continuing.
1) CCn1c(=O)c2c(nc3n2CCN(Cc2cccc(C(F)(F)F)c2)C3)n(CC)c1=O [Compound 15g] = Y
2) C#CCn1c(=O)c2c(nc3n2CCN(CCc2ccccc2OC)C3)n(CC)c1=O [Compound 20i] = N
3) CCn1c(=O)c2c(nc3n2CCN(Cc2cc(C(F)(F)F)ccc2F)C3)n(CC)c1=O [Compound 15j] = N
4) CCn1c(=O)n(C)c(=O)c2c1nc1n2CCN(Cc2cc(Cl)cc(Cl)c2)C1 [Compound 16b] = N
5) C#CCn1c(=O)c2c(nc3n2CCN(Cc2cc(C(F)(F)F)ccc2Cl)C3)n(C)c1=O [Compound 19b] = N
6) CCn1c(=O)c2c(nc3n2CCN(Cc2ccc(F)c(Br)c2)C3)n(CC)c1=O [Compound 15k] = N
7) CCn1c(=O)c2c(nc3n2CCN(Cc2cccc(C(F)(F)F)c2F)C3)n(CC)c1=O [Compound 15h] = N
8) C#CCn1c(=O)c2c(nc3n2CCN(CCc2ccccc2)C3)n(CC)c1=O [Compound 20h] = Y
9) C#CCn1c(=O)c2c(nc3n2CCN(Cc2ccccc2OC)C3)n(CC)c1=O [Compound 20f] = Y
10) C#CCn1c(=O)c2c(nc3n2CCN(Cc2cccc(OC)c2)C3)n(CC)c1=O [Compound 20g] = Y

Now for another entry.
is_below(Ki, 600 nM) for C#CCn1c(=O)c2c(nc3n2CCN(CCc2cccc(OC)c2)C3)n(CC)c1=O [Compound 20j] ?
N

###

tgt: rat A2A AR (Rattus norvegicus)
Construct: A2A ARs of rat brain striatal membrane preparations; from tissue; host or cells: rat brain striatum membranes
assay.name: Radioligand binding assay at rat A2A AR (rat brain striatum) vs. [^3H]MSX-2
test.conditions: rat (r); rat brain striatum; n = 3; read-out: Ki ± SEM, A2A vs. [^3H]MSX-2
Property: Ki; scope: individual compounds
Returns: string containing the numeric result and its unit.

Some compounds with known Ki results, for comparison:
1) C#CCn1c(=O)c2c(nc3n2CCN(c2ccc(F)cc2)C3)n(CC)c1=O [Compound 20b] = 0.128 µM
2) C#CCn1c(=O)c2c(nc3n2CCN(CCc2ccccc2)C3)n(CC)c1=O [Compound 20h] = 1.7 µM
3) CCCn1c(=O)c2c(nc3n2CCN(Cc2ccc(Cl)c(Cl)c2)C3)n(C)c1=O = 0.675 µM
4) C#CCn1c(=O)c2c(nc3n2CCN(Cc2ccc(Cl)c(Cl)c2)C3)n(C)c1=O [Compound 19a] = 0.642 µM
5) CCn1c(=O)c2c(nc3n2CCN(Cc2ccccc2F)C3)n(CC)c1=O [Compound 15a] = 2 µM
6) CCn1c(=O)c2c(nc3n2CCN(Cc2cc(Cl)cc(Cl)c2)C3)n(CC)c1=O [Compound 15m] = 2.2 µM
7) C#CCn1c(=O)c2c(nc3n2CCN(c2cccc(OC)c2)C3)n(CC)c1=O [Compound 20c] = 0.25 µM

We next turn to a different compound, shown below.
Need Ki, item C#CCn1c(=O)c2c(nc3n2CCN(c2ccccc2F)C3)n(CC)c1=O [Compound 20a]
1.38 µM

###

tgt: rat A1 AR (Rattus norvegicus, UniProt P25099)
Sequence (P25099 whole entry): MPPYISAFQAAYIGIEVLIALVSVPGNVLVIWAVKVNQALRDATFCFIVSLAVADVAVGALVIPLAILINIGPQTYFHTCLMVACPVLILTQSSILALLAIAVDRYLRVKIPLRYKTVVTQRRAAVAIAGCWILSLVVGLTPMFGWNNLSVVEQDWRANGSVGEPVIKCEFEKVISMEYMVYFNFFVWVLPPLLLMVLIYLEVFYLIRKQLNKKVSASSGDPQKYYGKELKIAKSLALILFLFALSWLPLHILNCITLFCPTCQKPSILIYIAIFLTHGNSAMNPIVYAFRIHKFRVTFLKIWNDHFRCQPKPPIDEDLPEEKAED
Property: log10 of Ki; scope: individual compounds
All values: base-10 log of Ki in µM.

1. CCn1c(=O)c2c(nc3n2CCN(Cc2ccc(F)cc2)C3)n(C)c1=O [Compound 14h] = -0.79
2. CCn1c(=O)c2c(nc3n2CCN(Cc2ccc(Br)cc2)C3)n(CC)c1=O [Compound 15e] = -1.27
3. CCn1c(=O)c2c(nc3n2CCN(Cc2cc(Br)ccc2F)C3)n(CC)c1=O [Compound 15l] = -1.47
4. C#CCn1c(=O)c2c(nc3n2CCN(c2ccc(OC)c(OC)c2)C3)n(CC)c1=O [Compound 20d] = 0.22
5. CCn1c(=O)c2c(nc3n2CCN(Cc2cc(F)cc(C(F)(F)F)c2)C3)n(C)c1=O [Compound 14p] = -0.95
6. Cn1c(=O)c2c(nc3n2CCN(Cc2ccc(Cl)c(Cl)c2)C3)n(C2CC2)c1=O = -0.23
7. C#CCn1c(=O)c2c(nc3n2CCN(Cc2cccc(OC)c2)C3)n(CC)c1=O [Compound 20g] = -0.93
8. CCn1c(=O)c2c(nc3n2CCN(Cc2cc(Cl)ccc2Cl)C3)n(C)c1=O [Compound 14j] = -1.43

We next turn to a different compound, shown below.
Need log10 of Ki, item C#CCn1c(=O)c2c(nc3n2CCN(Cc2ccccc2OC)C3)n(CC)c1=O [Compound 20f]
-1.49

###

assay.name: Thermodynamic solubility measurements
Format: physicochemical
test.conditions: aqueous buffer, thermodynamic from solid; pH 7.4; thermodynamic solubility; read-out: Solubility, pH 7.4
recorded.endpoint: solubility (µg/mL)
Kindly answer with a numeric value in µg/mL, unit omitted.

Some compounds with known solubility results, for comparison:
1) CCn1c(=O)c2c(nc3n2CCN(Cc2cccc(Br)c2)C3)n(C)c1=O [Compound 14b] = 0.9
2) CCn1c(=O)c2c(nc3n2CCN(Cc2ccccc2C(F)(F)F)C3)n(CC)c1=O [Compound 15f] = 0.7
3) CCn1c(=O)c2c(nc3n2CCN(Cc2ccc(Br)cc2)C3)n(C)c1=O [Compound 14c] = 3
4) CCn1c(=O)c2c(nc3n2CCN(Cc2ccccc2Br)C3)n(C)c1=O [Compound 14a] = 0.8
5) CCn1c(=O)c2c(nc3n2CCN(Cc2cccc(C(F)(F)F)c2)C3)n(C)c1=O [Compound 14e] = 2

We next turn to a different compound, shown below.
Need solubility, item CCn1c(=O)c2c(nc3n2CCN(Cc2cccc(C(F)(F)F)c2)C3)n(CC)c1=O [Compound 15g]
2

###

tgt: rat A2A AR (Rattus norvegicus, UniProt P30543)
Construct: A2A ARs of rat brain striatal membrane preparations; from tissue; host or cells: rat brain striatum membranes
assay.name: Radioligand binding assay at rat A2A AR (rat brain striatum) vs. [^3H]MSX-2
test.conditions: rat (r); rat brain striatum; n = 3; read-out: Ki ± SEM, A2A vs. [^3H]MSX-2
recorded.endpoint: pKi
Units for pKi: none; it is -log10 of a concentration expressed in mol/L.

1. C#CCn1c(=O)c2c(nc3n2CCN(CCc2ccc(OC)cc2)C3)n(CC)c1=O [Compound 20k] = 5.57

We next turn to a different compound, shown below.
Need pKi, item C#CCn1c(=O)c2c(nc3n2CCN(CCc2ccccc2OC)C3)n(CC)c1=O [Compound 20i]
6.05

###

tgt: human A2B AR (Homo sapiens, UniProt P29275)
Construct: expressed in transfected cells; host or cells: CHO cells
Sequence (P29275 whole entry): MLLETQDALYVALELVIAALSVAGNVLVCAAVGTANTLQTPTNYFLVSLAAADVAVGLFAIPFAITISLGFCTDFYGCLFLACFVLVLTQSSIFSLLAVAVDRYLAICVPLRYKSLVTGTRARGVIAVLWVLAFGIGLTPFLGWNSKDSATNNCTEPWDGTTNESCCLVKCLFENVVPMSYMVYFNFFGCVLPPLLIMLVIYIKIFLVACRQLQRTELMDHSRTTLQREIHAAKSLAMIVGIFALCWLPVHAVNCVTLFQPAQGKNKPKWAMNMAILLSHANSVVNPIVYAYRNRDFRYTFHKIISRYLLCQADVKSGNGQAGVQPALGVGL
assay.name: Radioligand binding assay at human A2B AR vs. [^3H]PSB-603
test.conditions: CHO cell membranes, n = 2 (n = 3 where marked a), read-out: Ki ± SEM, A2B vs. [^3H]PSB-603
recorded.endpoint: Ki

1. CCn1c(=O)c2c(nc3n2CCN(Cc2cc(C(F)(F)F)ccc2Cl)C3)n(C)c1=O [Compound 14m] = > 1 µM
2. Cn1c(=O)[nH]c(=O)c2c1nc1n2CCN(CCc2cccc(Br)c2)C1 [Compound 13d] = > 1 µM
3. CCn1c(=O)c2c(nc3n2CCN(Cc2ccc(C(F)(F)F)cc2)C3)n(C)c1=O [Compound 14f] = > 0.1 µM

We next turn to a different molecule, shown below.
Need Ki, item CCn1c(=O)c2c(nc3n2CCN(Cc2ccc(Cl)c(C(F)(F)F)c2)C3)n(CC)c1=O [Compound 15p]
> 1 µM
